Provide the recorded koff for the entries that follow.
target: human NGF (Homo sapiens, UniProt P01138); assay: BIAcore screening assay of Fab library clones (koff); type: binding; details: Table 3: heavy chain library clones paired with 6D5 light chain
Sequence (P01138 122-241): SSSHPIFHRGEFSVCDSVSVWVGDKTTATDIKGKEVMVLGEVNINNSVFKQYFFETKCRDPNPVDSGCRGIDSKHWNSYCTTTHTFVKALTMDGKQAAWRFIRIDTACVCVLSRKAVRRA
Number first, unit second: that is the form wanted.

>>> recorded_result("H19: heavy chain library clone, CDRH1 SEQ ID NO:30, CDRH2 SEQ ID NO:31 (antibody, V domains shown) VH: QVQLQESGPGLVKPSETLSLTCTVSGFSLIGYDLNWIRQPPGKGLEWIGIIWGDGTTDYNSAVKSRVTISKDTSKNQFSLKLSSVTAADTAVYYCARGGYYYGTSYYFDYWGQGTLVTVS VL: DIQMTQSPSSLSASVGDRVTITCRASQDISNHLNWYQQKPGKAPKLLIYYISRFHSGVPSRFSGSGSGTDFTFTISSLQPEDIATYYCQQSKTLPYTFGQGTKLEIKRT")
"0.00024 s⁻¹"

For every record below, what is its koff?
1. H109: heavy chain library clone, CDRH1 SEQ ID NO:28, CDRH2 SEQ ID NO:29 (antibody, V domains shown) VH: QVQLQESGPGLVKPSETLSLTCTVSGFSLIGYDSNWIRQPPGKGLEWIGIIWGDGTTDYNSALKSRVTISKDTSKNQFSLKLSSVTAADTAVYYCARGGYYYGTSYYFDYWGQGTLVTVS VL: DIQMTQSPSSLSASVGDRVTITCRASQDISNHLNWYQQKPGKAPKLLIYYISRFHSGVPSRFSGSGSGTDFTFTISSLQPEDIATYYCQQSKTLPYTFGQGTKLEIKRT
2. H227: heavy chain library clone, CDRH1 SEQ ID NO:40, CDRH2 SEQ ID NO:41 (antibody, V domains shown) VH: QVQLQESGPGLVKPSETLSLTCTVSGFSLIGYDISWIRQPPGKGLEWIGQIWGDGTTDYNSSVKSRVTISKDTSKNQFSLKLSSVTAADTAVYYCARGGYYYGTSYYFDYWGQGTLVTVS VL: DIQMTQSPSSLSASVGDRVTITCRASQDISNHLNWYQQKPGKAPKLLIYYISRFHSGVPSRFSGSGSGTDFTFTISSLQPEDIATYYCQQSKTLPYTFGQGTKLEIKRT

a:
1. 0.00016 s⁻¹
2. 0.00054 s⁻¹
